Tested on: SF-295
Assay: Anticancer activity against Homo sapiens (human) SF295 cells after 48 hr by SRB assay
Assay type: functional
Conditions: SF-295, 48 h
Here, each record is paired with measured GI50 data.
Answer format: numeric, nM implied, no suffix.

[
  {
    "CHEMICAL STRING": "COc1ccc(OC)c(/C=C/c2nnc(S)n2-c2ccc(Cl)cc2)c1",
    "GI50 (nM)": 4160
  },
  {
    "CHEMICAL STRING": "COc1ccc(OC)c(/C=C/C(=O)N/N=C/c2ccccc2)c1",
    "GI50 (nM)": 1000
  },
  {
    "CHEMICAL STRING": "COc1ccc(OC)c(/C=C/c2nnc(Nc3ccc(Cl)cc3)o2)c1",
    "GI50 (nM)": 6150
  }
]

stdin: Which GI50 is reported with SF-295 for this entry: COc1ccc(OC)c(/C=C/C(=O)N/N=C/c2ccc(Cl)cc2)c1 ?
stdout: 129

----------
Tested on: OVCAR-3
Experiment: Anticancer activity against Homo sapiens (human) OVCAR3 cells after 48 hr by SRB assay
Format: functional
Conditions: OVCAR-3, 48 h
ENDPOINT: TGI (µM)
Expressed in µM, but write only the number.

Known TGI results, listed for orientation:
[
  {
    "CHEMICAL STRING": "COc1ccc(OC)c(/C=C/c2nnc(S)n2-c2ccc(Cl)cc2)c1",
    "UNIT TAG": "µM",
    "MEASURED RESULT": 21.4
  },
  {
    "CHEMICAL STRING": "COc1ccc(OC)c(/C=C/C(=O)N/N=C/c2ccc(Cl)cc2)c1",
    "UNIT TAG": "µM",
    "MEASURED RESULT": 0.115
  }
]

Could you now consider this next compound?
stdin: I would be grateful if you could share the reported TGI for COc1ccc(OC)c(/C=C/c2nnc(Nc3ccc(Cl)cc3)o2)c1 .
stdout: 15.9

----------
Test system: A498
Experiment: Anticancer activity against Homo sapiens (human) A498 cells after 48 hr by SRB assay
Assay type: functional
Settings: A498, 48 h
Catalogue of compounds with associated TGI
Report the figure in µM without appending any unit label.

[
  {
    "CHEMICAL STRING": "COc1ccc(OC)c(/C=C/C(=O)N/N=C/c2ccc(Cl)cc2)c1",
    "UNIT TAG": "µM",
    "TGI": 27.5
  }
]

stdin: Need TGI, item COc1ccc(OC)c(/C=C/c2nnc(Nc3ccc(Cl)cc3)o2)c1
stdout: 7.76

----------
Test system: BT-549
Assay: Anticancer activity against Homo sapiens (human) BT549 cells after 48 hr by SRB assay
Assay type: functional
Details: BT-549, 48 h, read-out: LC50 (the source's name)
This listing pairs compounds with measured CC50.

[
  {
    "CHEMICAL STRING": "COc1ccc(OC)c(/C=C/c2nnc(S)n2-c2ccc(Cl)cc2)c1",
    "ASSAY SYSTEM": "BT-549",
    "ENDPOINT": "CC50",
    "MEASURED RESULT": "> 100 µM"
  },
  {
    "CHEMICAL STRING": "COc1ccc(OC)c(/C=C/c2nnc(Nc3ccc(Cl)cc3)o2)c1",
    "ASSAY SYSTEM": "BT-549",
    "ENDPOINT": "CC50",
    "MEASURED RESULT": "> 100 µM"
  },
  {
    "CHEMICAL STRING": "COc1ccc(OC)c(/C=C/C(=O)N/N=C/c2ccc(Cl)cc2)c1",
    "ASSAY SYSTEM": "BT-549",
    "ENDPOINT": "CC50",
    "MEASURED RESULT": "> 100 µM"
  }
]

stdin: Give recorded CC50 with BT-549 for the following compound: COc1ccc(OC)c(/C=C/C(=O)N/N=C/c2ccccc2)c1
stdout: > 100 µM

----------
System: NCI-H522
Test: Anticancer activity against Homo sapiens (human) NCI-H522 cells after 48 hr by SRB assay
Type: functional
Conditions: NCI-H522, 48 h
Quick list: GI50 per entry.
Unit nM implied. Number only.

[
  {
    "CHEMICAL STRING": "COc1ccc(OC)c(/C=C/C(=O)N/N=C/c2ccc(Cl)cc2)c1",
    "UNIT TAG": "nM",
    "MEASURED RESULT": 29.2
  },
  {
    "CHEMICAL STRING": "COc1ccc(OC)c(/C=C/c2nnc(Nc3ccc(Cl)cc3)o2)c1",
    "UNIT TAG": "nM",
    "MEASURED RESULT": 7130
  },
  {
    "CHEMICAL STRING": "COc1ccc(OC)c(/C=C/c2nnc(S)n2-c2ccc(Cl)cc2)c1",
    "UNIT TAG": "nM",
    "MEASURED RESULT": 4070
  }
]

stdin: Report GI50 for COc1ccc(OC)c(/C=C/C(=O)N/N=C/c2ccccc2)c1 please.
stdout: 1570

----------
Reported TGI values are given for each entry in this list.
System: TK-10
Assay: Anticancer activity against Homo sapiens (human) TK10 cells after 48 hr by SRB assay
Format: functional
Details: TK-10, 48 h

Sample records with TGI:
[
  {
    "CHEMICAL STRING": "COc1ccc(OC)c(/C=C/c2nnc(Nc3ccc(Cl)cc3)o2)c1",
    "ASSAY SYSTEM": "TK-10",
    "TGI": "83.2 µM"
  },
  {
    "CHEMICAL STRING": "COc1ccc(OC)c(/C=C/C(=O)N/N=C/c2ccc(Cl)cc2)c1",
    "ASSAY SYSTEM": "TK-10",
    "TGI": "> 100 µM"
  },
  {
    "CHEMICAL STRING": "COc1ccc(OC)c(/C=C/C(=O)N/N=C/c2ccccc2)c1",
    "ASSAY SYSTEM": "TK-10",
    "TGI": "> 100 µM"
  }
]

stdin: Hello, I am looking for reported TGI with TK-10 for COc1ccc(OC)c(/C=C/c2nnc(S)n2-c2ccc(Cl)cc2)c1 . Could you help?
stdout: > 100 µM

----------
Listing of recorded CC50 by entry.
Tested on: A549
Test: Anticancer activity against Homo sapiens (human) A549/ATCC cells after 48 hr by SRB assay
Format: functional
Details: A549, 48 h, read-out: LC50 (the source's name)

Study these solved cases before continuing.
[
  {
    "CHEMICAL STRING": "COc1ccc(OC)c(/C=C/C(=O)N/N=C/c2ccccc2)c1",
    "MEASURED RESULT": "> 100 µM"
  },
  {
    "CHEMICAL STRING": "COc1ccc(OC)c(/C=C/C(=O)N/N=C/c2ccc(Cl)cc2)c1",
    "MEASURED RESULT": "> 100 µM"
  },
  {
    "CHEMICAL STRING": "COc1ccc(OC)c(/C=C/c2nnc(S)n2-c2ccc(Cl)cc2)c1",
    "MEASURED RESULT": "> 100 µM"
  }
]

stdin: Quick check: CC50 of COc1ccc(OC)c(/C=C/c2nnc(Nc3ccc(Cl)cc3)o2)c1 ?
stdout: 78.6 µM

----------
Here, each record is paired with measured GI50 data.
Tested on: TK-10
Test: Anticancer activity against Homo sapiens (human) TK10 cells after 48 hr by SRB assay
Type: functional
Conditions: TK-10, 48 h
Quick note: give the figure in µM, leave out the unit.

stdin: Quick one: GI50 for COc1ccc(OC)c(/C=C/C(=O)N/N=C/c2ccc(Cl)cc2)c1 ?
stdout: 0.691

stdin: # GI50 lookup, item COc1ccc(OC)c(/C=C/c2nnc(Nc3ccc(Cl)cc3)o2)c1
stdout: 7.4

stdin: Would you kindly share the measured GI50 for COc1ccc(OC)c(/C=C/c2nnc(S)n2-c2ccc(Cl)cc2)c1 ?
stdout: 25.8

stdin: What does the data say about its GI50? Entry: COc1ccc(OC)c(/C=C/C(=O)N/N=C/c2ccccc2)c1
stdout: 16.6

----------
Tested on: Pseudomonas aeruginosa
Assay: Antimicrobial activity against Pseudomonas aeruginosa ATCC 10145 after 48 hr by two-fold serial broth dilution method
Format: functional
Conditions: ATCC 10145, 48 h
Listed next: entries and their corresponding MBC.
Numeric answer only, unit µg/mL assumed.

[
  {
    "COMPOUND": "COc1ccc(OC)c(/C=C/C2=NN(C(C)=O)C(c3ccccc3)O2)c1 (stereo not given)",
    "ASSAY SYSTEM": "Pseudomonas aeruginosa",
    "MBC (µg/mL)": 100
  },
  {
    "COMPOUND": "COc1ccc(OC)c(/C=C/c2nnc(Nc3ccc(C)cc3)o2)c1",
    "ASSAY SYSTEM": "Pseudomonas aeruginosa",
    "MBC (µg/mL)": 50
  },
  {
    "COMPOUND": "CCSc1nnc(/C=C/c2cc(OC)ccc2OC)n1-c1ccc(Cl)cc1",
    "ASSAY SYSTEM": "Pseudomonas aeruginosa",
    "MBC (µg/mL)": 50
  },
  {
    "COMPOUND": "COc1ccc(OC)c(/C=C/C2=NN(C(C)=O)C(c3ccc([N+](=O)[O-])cc3)O2)c1 (stereo not given)",
    "ASSAY SYSTEM": "Pseudomonas aeruginosa",
    "MBC (µg/mL)": 100
  },
  {
    "COMPOUND": "COc1ccc(OC)c(/C=C/c2nnc(Nc3ccccc3)s2)c1",
    "ASSAY SYSTEM": "Pseudomonas aeruginosa",
    "MBC (µg/mL)": 100
  },
  {
    "COMPOUND": "COc1ccc(OC)c(/C=C/c2nnc(S)n2-c2ccc(Cl)cc2)c1",
    "ASSAY SYSTEM": "Pseudomonas aeruginosa",
    "MBC (µg/mL)": 100
  },
  {
    "COMPOUND": "COc1ccc(OC)c(/C=C/c2nnc(SCC(=O)c3cc(O)ccc3O)n2-c2ccccc2)c1",
    "ASSAY SYSTEM": "Pseudomonas aeruginosa",
    "MBC (µg/mL)": 25
  },
  {
    "COMPOUND": "COc1ccc(OC)c(/C=C/C(=O)N/N=C/c2ccccc2)c1",
    "ASSAY SYSTEM": "Pseudomonas aeruginosa",
    "MBC (µg/mL)": 100
  },
  {
    "COMPOUND": "COc1ccc(OC)c(/C=C/c2nnc(S)n2-c2ccccc2)c1",
    "ASSAY SYSTEM": "Pseudomonas aeruginosa",
    "MBC (µg/mL)": 100
  }
]

The record that follows has no MBC shown yet.
stdin: Which MBC is reported for this compound? COc1ccc(OC)c(/C=C/c2nnc(Nc3ccc(C)cc3)s2)c1
stdout: 100
